Just for reference, paper PMC10786891 is where these values come from.

Listed binders paired with reported Kd
Biological target: T1, EsCas13d, nuclease-dead (Eubacterium siraeum, UniProt B0MS50, R295A;H300A;R849A;H854A)
T1 sequence: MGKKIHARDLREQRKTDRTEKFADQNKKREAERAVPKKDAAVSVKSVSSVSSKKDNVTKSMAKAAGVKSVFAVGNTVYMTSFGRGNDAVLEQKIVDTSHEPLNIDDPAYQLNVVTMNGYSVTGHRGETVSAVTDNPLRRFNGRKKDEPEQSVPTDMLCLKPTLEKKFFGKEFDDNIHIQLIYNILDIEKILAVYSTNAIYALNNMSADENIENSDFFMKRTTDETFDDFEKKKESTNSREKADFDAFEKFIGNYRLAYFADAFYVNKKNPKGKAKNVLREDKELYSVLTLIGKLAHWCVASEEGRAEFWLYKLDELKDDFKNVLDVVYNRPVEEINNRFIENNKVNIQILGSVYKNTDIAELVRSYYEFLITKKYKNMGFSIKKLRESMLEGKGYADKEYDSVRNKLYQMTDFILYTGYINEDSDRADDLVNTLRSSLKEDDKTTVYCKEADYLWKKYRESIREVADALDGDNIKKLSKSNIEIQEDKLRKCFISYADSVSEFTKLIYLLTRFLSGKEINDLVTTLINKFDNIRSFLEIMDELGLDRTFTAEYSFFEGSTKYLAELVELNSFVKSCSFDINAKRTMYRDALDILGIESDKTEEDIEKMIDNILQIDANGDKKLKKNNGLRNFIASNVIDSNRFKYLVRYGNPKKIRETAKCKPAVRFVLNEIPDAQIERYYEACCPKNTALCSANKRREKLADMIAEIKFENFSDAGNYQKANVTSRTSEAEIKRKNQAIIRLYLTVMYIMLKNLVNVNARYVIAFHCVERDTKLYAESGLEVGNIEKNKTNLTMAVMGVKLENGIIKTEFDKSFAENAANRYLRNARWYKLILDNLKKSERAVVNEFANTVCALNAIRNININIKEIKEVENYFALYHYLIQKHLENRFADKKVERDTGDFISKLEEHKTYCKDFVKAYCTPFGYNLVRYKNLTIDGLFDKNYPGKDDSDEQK
Assay: crRNA (strand 1, pre-loaded); Mg2+; 40 mM Tris-HCl pH 7.5, 150 mM NaCl, 6 mM MgCl2, 1 mM DTT, 0.1% Tween-20, 0.2 mg/ml BSA; 25 C; 10 min per concentration, then washed
Details: tags: His6-TwinStrep-SUMO cleaved; N-terminal SNAP kept (SNAP-Surface 488); label: 3' end held by stalled T7 RNA polymerase
Quick note: give the figure in nM, leave out the unit.

Look at this binder and give its reported Kd. target 1 U3A,U10G (mixed) RNA 1: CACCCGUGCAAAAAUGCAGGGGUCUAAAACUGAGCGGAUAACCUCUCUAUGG RNA 2: GGGAAUGGAUCCACAUCUACGAAUUCGUACCAUAGAGAGGUGAUCCGCACACCGAGAUCGGAAGAGCACACGU 61

Which measured Kd value corresponds to target 1 C4A,G12C (mixed) RNA 1: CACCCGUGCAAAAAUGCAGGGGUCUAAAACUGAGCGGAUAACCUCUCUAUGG RNA 2: GGGAAUGGAUCCACAUCUACGAAUUCGUACCAUAGAGAGCUUAUCCGAUCACCGAGAUCGGAAGAGCACACGU ? 31

What value of Kd has been recorded for this entry: target 1 insC 3' of 14,insC 3' of 10 (mixed) RNA 1: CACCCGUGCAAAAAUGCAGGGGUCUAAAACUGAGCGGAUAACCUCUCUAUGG RNA 2: GGGAAUGGAUCCACAUCUACGAAUUCGUACCAUAGAGACGGUUCAUCCGCUCACCGAGAUCGGAAGAGCACACGU 55

Moving on to another binder below.
I would be grateful if you could share the reported Kd for target 1 MT 5'PFS UAG 3'PFS ACA (mixed) RNA 1: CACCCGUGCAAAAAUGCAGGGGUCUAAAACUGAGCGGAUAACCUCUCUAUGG RNA 2: GGGAAUGGAUCCACAUCUACGAAUUCUAGCCAUAGAGAGGUUAUCCGCUCAACAAGAUCGGAAGAGCACACGU . 31.5
